Item-by-item account of Off-rate ELISA (normalized to XAB1 Fab)
# Measurement target: T1, human IL-17A (construct not specified) (human, UniProt Q16552 24-155, limits assumed)
# T1 construct: also called huIL-17A
# T1 sequence: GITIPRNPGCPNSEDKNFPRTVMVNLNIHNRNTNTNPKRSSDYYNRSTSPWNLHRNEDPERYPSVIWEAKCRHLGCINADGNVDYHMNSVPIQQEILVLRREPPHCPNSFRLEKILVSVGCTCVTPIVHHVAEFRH
# Test: ELISA, coated huIL-17A, long wash
Metric name: Off-rate ELISA (normalized to XAB1 Fab) (fold)

- MB456 (Fab, V domains shown, Fab variant of XAB1) VH: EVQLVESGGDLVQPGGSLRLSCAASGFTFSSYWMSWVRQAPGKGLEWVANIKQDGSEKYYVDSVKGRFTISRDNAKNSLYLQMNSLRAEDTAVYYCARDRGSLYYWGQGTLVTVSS VL: AIQLTQSPSSLSASVGDRVTITCRPSQGILWHLAWYQQKPGKAPKLLIYDASSLENGVPSRFSGSGSGTDFTLTISSLQPEDFATYYCQQFNSYPLTFGGGTKVEIK: 45.1
- MB483 (Fab, V domains shown, Fab variant of XAB1) VH: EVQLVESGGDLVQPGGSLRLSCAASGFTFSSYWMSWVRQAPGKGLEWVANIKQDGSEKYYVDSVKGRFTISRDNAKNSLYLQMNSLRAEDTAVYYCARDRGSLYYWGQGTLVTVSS VL: AIQLTQSPSSLSASVGDRVTITCRPSQGIFWTLAWYQQKPGKAPKLLIYDASSLENGVPSRFSGSGSGTDFTLTISSLQPEDFATYYCQQFNSYPLTFGGGTKVEIK: 47.1
- MB454 (Fab, V domains shown, Fab variant of XAB1) VH: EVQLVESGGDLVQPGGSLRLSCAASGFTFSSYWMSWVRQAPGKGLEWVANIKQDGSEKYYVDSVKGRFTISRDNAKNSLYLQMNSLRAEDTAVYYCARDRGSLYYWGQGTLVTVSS VL: AIQLTQSPSSLSASVGDRVTITCRPSQGILWALAWYQQKPGKAPKLLIYDASSLENGVPSRFSGSGSGTDFTLTISSLQPEDFATYYCQQFNSYPLTFGGGTKVEIK: 34.2
